Test: Cell-based coincidence reporter assay to measure PMP22 gene transcription in S16 Pmp22-F2sN cells - Primary screen
Details: S16 Pmp22-F2sN Schwann cells, FLuc/NLuc coincidence luminescence, 24 h; series mostly up to 57.5 µM
Hit rate of the full screen: of about 43,000 compounds, about 830 (1.9%) were called active. Inconclusive results (about 30%) are left out. Rule for the calls: active = clear falling dose curves in both reporters; inconclusive = both reporters move, but less clearly or upward; inactive = either reporter flat; the % is the NLuc reporter signal. Many of the other results were omitted from the sample, so actives are more common in it than they were.
Classes used: active, inactive

| Molecule | Qualitative Label |
| --- | --- |
| Cc1ccc2nc(COc3ccc(NC(=O)COc4ccccc4F)cc3)cc(=O)n2c1 | inactive |
| Cc1ccc(-c2onc(C)c2C)cc1S(=O)(=O)Nc1ccccn1 | inactive |
| O=c1c2cccnc2n(Cc2cccc(F)c2)c(=O)n1Cc1ccccc1Cl | inactive |
| CCOC(=O)c1ccc(NC2=CC(c3ccc(OCC)cc3)N(c3ccc(C(=O)OCC)cc3)C2=O)cc1 (stereo not given) | inactive |
| COc1cc(NC(=O)NCC2CCN(Cc3ccc(C)cc3)CC2)cc(OC)c1OC | inactive |
| Cc1cc(F)ccc1NC1(c2ccccc2)C(=O)c2ccccc2C1=O | inactive |
| Cc1ccc(C2C=C(c3ccc(Cl)cc3)Nc3nc(NC(=O)CCC(=O)O)nn32)cc1 (stereo not given) | inactive |
| COc1ccccc1-c1noc(-c2ccc(NCc3ccccc3)c([N+](=O)[O-])c2)n1 | inactive |
| CC(=O)c1ccc(N2CCN(C3C(=O)c4ccccc4N3C(C)=O)CC2)cc1 (stereo not given) | inactive |
| Cc1cc(F)ccc1NS(=O)(=O)c1ccc(-n2cccn2)cc1 | active |

====

Experiment: Cell-based coincidence reporter assay to measure PMP22 gene transcription in S16 Pmp22-F2sN cells - Primary screen
Settings: S16 Pmp22-F2sN Schwann cells, FLuc/NLuc coincidence luminescence, 24 h; series mostly up to 57.5 µM
The campaign covered roughly 43,000 compounds. About 830 (1.9%) were called active. Inconclusive results (about 30%) are left out. How the source made its calls: active means clear falling dose curves in both reporters; inconclusive means both reporters move, but less clearly or upward; inactive means either reporter flat; the % is the NLuc reporter signal. For the sample, actives were picked, then their nearest neighbours and some compounds at random.
Possible outcomes: active, inactive

| Compound | Qualitative Label |
| --- | --- |
| Cc1c(Cl)cccc1NC(=O)Cn1cc(C(=O)c2cccs2)c2ccccc21 | active |
| COc1ccc(C(=O)N2CCC(c3nc4ccccc4o3)CC2)cc1 | inactive |
| Cc1cccc(NC(=O)Cn2cc(S(=O)(=O)Cc3ccccc3Cl)c3ccccc32)c1 | inactive |
| CCOC(=O)c1ccc(NC(=O)C2CC(=O)NC(=Nc3ccc(C)c(C)c3)S2)cc1 (centres undefined) | inactive |

====

Assay: Cell-based coincidence reporter assay to measure PMP22 gene transcription in S16 Pmp22-F2sN cells - Primary screen
Settings: S16 Pmp22-F2sN Schwann cells (luciferase reporters placed in the Pmp22 gene), FLuc/NLuc coincidence luminescence, 24 h; series mostly up to 57.5 µM
Out of some 43,000 compounds screened, about 830 (1.9%) were called active. Roughly 30% stayed inconclusive and do not appear here. The calls were made as follows: active = clear falling dose curves in both reporters; inconclusive = both reporters move, but less clearly or upward; inactive = either reporter flat; the % is the NLuc reporter signal. The full list was thinned out, with actives kept by preference.
Outcome codes: True (active), False (inactive)

| Compound | Qualitative Label |
| --- | --- |
| CCOC(=O)c1c(NC(=O)c2cc(-c3ccc(Cl)cc3)on2)sc2c1CCCC2 | False |
| CCc1ccccc1NC(=O)Cc1cn(C)c2ccccc12 | False |
| Cc1noc(/C=C/N(C)C)c1S(=O)(=O)N1CCCC(C(=O)Nc2cccc(F)c2)C1 (centres undefined) | False |
| COc1ccc(C(=O)COC(=O)CCCC(=O)Nc2cc(C(F)(F)F)ccc2Cl)cc1 | False |
| Cc1cc(-c2ccccc2)n2nc(-c3ccccc3)cc2n1 | False |
| Cc1ccc(C)c(S(=O)(=O)n2nc(C)c(S(=O)(=O)N3CCC(C)CC3)c2C)c1 | False |
| COCC(C)NS(=O)(=O)c1ccc(N2CCCCS2(=O)=O)cc1 (centres undefined) | False |
| O=C(NCc1ccccc1Cl)c1cccn1-c1nnc(N2CCCCC2)s1 | False |
| CCC1=Nc2cc(C(=O)NCCCOC(C)C)ccc2Sc2ccc(C)cc21 | True |
| COc1ccccc1CNC(=O)Cn1nc(C)c2nn(-c3ccc(Cl)cc3)c(C)c2c1=O | False |
| Cc1cccc(NC(=O)CSc2nc(-c3ccco3)cc(C(F)(F)F)n2)c1C | False |
| COc1ccc(N2CCN(C(=O)c3c(C)oc4nc(C)nc(N5CCCC5)c34)CC2)cc1 | False |
| O=C(Cn1nc(Cc2cccnc2)c2ccccc2c1=O)N1CCN(c2ccccc2F)CC1 | False |
| CCOc1ccc(N(CC)C(=O)C2CCN(S(=O)(=O)c3cccc4nonc34)CC2)cc1 | False |
| CCc1ccc(NC(=O)CN2CCSc3ccc(S(=O)(=O)N4CCCC4)cc32)cc1 | True |
| COc1ccccc1Nc1c2c(nc3ccc(NC(=O)/C=C/c4cc(OC)c(OC)c(OC)c4)cc13)CCCC2 | True |
| CCOC(=O)c1c(C)[nH]c(CCC(=O)NCCCN2CCN(c3cccc(Cl)c3)CC2)c1C | True |
| Cc1ccccc1CNC(=O)CSc1nnc(C)c2c(C)n(-c3ccccc3)nc12 | True |
| CCCN1C(=O)C(O)(CC(=O)c2ccc(CC)cc2)c2cc(Br)ccc21 (centres undefined) | True |
| COc1ccc(-c2nc(S(=O)(=O)c3ccccc3)c(N3CCCCC3)o2)cc1 | False |
| Cc1cccc(NC(=O)CN(c2ccc(C(C)C)cc2)S(=O)(=O)c2c(C)nn(C)c2C)c1C | False |
| CCOC(=O)c1cc(OC(=O)c2ccccc2Cl)n(-c2ccccc2)n1 | False |
| COC(=O)c1cc2occc2n1Cc1nc(-c2ccc(C)cc2)oc1C | False |
| CCCCOc1ccc(CN2C(=O)C(=O)c3cc(Br)cc(C)c32)cc1OC | True |
| COc1ccc(OC)c(CNC(=O)Cn2nc(C)c3c(C)n(-c4ccccc4)nc3c2=O)c1 | False |
| CCC(=O)Nc1ccc(C)cc1-c1nc2ccccc2n(Cc2ccccc2)c1=O | False |
| CCOc1ccc(N2CC(c3nc4ccccc4n3CCOc3ccc(OC)cc3)CC2=O)cc1 (centres undefined) | False |
| CC(=O)N1CCCc2cc(S(=O)(=O)N3CCCC(C(=O)N4CCN(c5cccc(Cl)c5)CC4)C3)ccc21 (centres undefined) | True |
| CCC1CCCCN1CCCNC(=O)c1cc2c(Cl)nc3ccccc3c2s1 (centres undefined) | True |
